All figures here come from the supplement of paper PMC8728848.

target: GlcNAc(b1-3)Gal(b1-4)GlcNAc(b1-3)Gal(b1-4)GlcNAc(b1-2)[GlcNAc(b1-3)Gal(b1-4)GlcNAc(b1-3)Gal(b1-4)GlcNAc(b1-6)]Man(a1-6)[GlcNAc(b1-3)Gal(b1-4)GlcNAc(b1-3)Gal(b1-4)GlcNAc(b1-2)Man(a1-3)]Man(b1-4)GlcNAc(b1-4)[Fuc(a1-6)]GlcNAc; test: glycan array binding signal (z-score within array); higher = stronger binding; conditions: glycan notation: IUPAC condensed, linker removed
The full list was thinned out, with the strongest signals kept by preference.
result_type: glycan array binding signal (z-score)
Respond with the number and no other words.

| binder | glycan array binding signal (z-score) |
| --- | --- |
| BIp1-His (Cryptococcus neoformans) (protein) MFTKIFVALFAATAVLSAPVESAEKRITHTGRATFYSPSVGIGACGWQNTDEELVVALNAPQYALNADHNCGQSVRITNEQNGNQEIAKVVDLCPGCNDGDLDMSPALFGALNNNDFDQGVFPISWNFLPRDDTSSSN | 2.23 |
| AFCNVH (Aspergillus fumigatus) (protein) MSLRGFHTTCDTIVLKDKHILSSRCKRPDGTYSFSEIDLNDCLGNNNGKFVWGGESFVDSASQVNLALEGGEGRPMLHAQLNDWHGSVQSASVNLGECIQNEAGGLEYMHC | 3.73 |

Looking up LlpA (Burkholderia cenocepacia) (protein) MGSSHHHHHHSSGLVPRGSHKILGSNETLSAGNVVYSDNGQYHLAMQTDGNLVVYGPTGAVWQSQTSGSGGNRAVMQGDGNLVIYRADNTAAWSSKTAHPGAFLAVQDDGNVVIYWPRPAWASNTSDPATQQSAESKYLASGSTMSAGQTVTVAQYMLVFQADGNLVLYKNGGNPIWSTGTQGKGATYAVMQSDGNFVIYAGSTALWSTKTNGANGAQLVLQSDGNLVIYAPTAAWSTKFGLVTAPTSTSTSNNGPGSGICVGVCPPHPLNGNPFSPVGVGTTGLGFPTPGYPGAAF , I found its glycan array binding signal (z-score) recorded as 1.97
